# Tested on: HUVEC
# experiment_summary: Induction of apoptosis in human HUVEC assessed as accumulation at subG1 phase at 2.6 uM incubated for 4 days by flow cytometry (reference value: 15.4 +/- 1.5%)
# Assay type: functional
metric: Activity
Quick note: number first, unit second.

Problem: Bench note: what Activity did COc1cc(C2=C(c3c[nH]c4cccnc34)C(=O)NC2=O)cc(OC)c1OC show?
Solution: 16.3%

Problem: Requested read-out: Activity. Entry: COc1cc(C2=C(c3c[nH]c4cnccc34)C(=O)NC2=O)cc(OC)c1OC
Solution: 66.3%

Problem: Returns the measured Activity for the input molecule. Input: COc1cc(C2=C(c3c[nH]c4ccncc34)C(=O)NC2=O)cc(OC)c1OC
Solution: 46.3%

Problem: Reported Activity, molecule COc1cc(C2=C(c3c[nH]c4ncccc34)C(=O)NC2=O)cc(OC)c1OC : ____
Solution: 49.2%
